Would you mind telling me the reported Enzyme Activity Endpoint Assay (purified): Fc of each entry?
assay target: pooled human IgG (human IgG1, 2, 3 and 4)
Numbers only, in ng/µL.

Your task in this section: give Enzyme Activity Endpoint Assay (purified): Fc for each listed record.
1. PRT-429 (protein) MTITSVWTKGVTPPTPEDFRYNNEDVLHAPYVANQGWYDITKTFDGKDNLLCGAATAGNMLHWWFDQNKEEIERYLKKHPEKQKIIFNNQELFDVKAAIDTKDSQTNSKLFNYFRDKAFPNLSARQLGVMPDLVLDMFINGYYLNLGKTQSTDVNRPYQDKDKRGGIFDAVFTRGDQTTLLTARHDLKNKGLNEISDLIKQELTEGKALALSHTYANVRINHVINLWGADFDAEGNLIAIYVTDSDARASIGMKKYFVGVNANGKVAISAKKIEGDNIGAQVLGLFTLSTGQDIWQKLS
2. PRT-434 (protein) MSQTEDSESLQRLRDIEDFQAEKKKQNVVYTKWLDGVDVKDHDFRKIVDGNIAYYATPLLNGRGFYDINKDFNRDSDKCAAAVAANMFHYWLDRNRDNVDRFLRQNPEKHGIIELPDGQLKLSDFLNTYESDDGYRDKSKLFDFISNNFNGPVWTDKLLDNYINGYAYNYKYGRTIEDPTKNTSKINFFKEVFNEKILTNNHSIRNQNEFSVLLSEALYTGKAIGLSYGPAGLRHGLGHIISVWGADLDADGNVVAIYVTDSDDKKLTIGDERVGLKRYKISTDDEGRLRLTAYEETHNTGGQIRGLWTLDTGKQAWADYFDKTEQTGTDQAEQ
3. PRT-373 (protein) MSQTEDSESLQRLRDIEDFQAEKEKQNVVYTKWLDGVDVKDHDFRKIVDGNSAYYATPLLNGRGWYDINKDFNRDNDKCAAAVAANMFHYWLDRNRDNVDRFLRQNPEKHGIIELPDGQLKLSDFLNTYESDDGYRDKSKLFDFISENFNGPVWTDKLLDNYINGYAYNSKYGRTIEDSTKNTSKINFFKEVFNEKILTNNHSIRNQNEFSVLLIEALYTGKAIGLSYGPAGLRHGLGHIISVWGADLDADGNVVAIYVTDSDDKKLTIGDERVGLKRYKISTDDEGRLRLTAYEETHNTGGQVRGLWTLDTGKQAWADYFDKTEQTGTDQAEQ
4. PRT-414 (protein) MTITSVWTKGVTPPTPEDFRYNNEDVLHAPYVANQGWYDITKTFDGKDNLLCGAATAGNMLHWWFDQNKEEIERYLKKHPEKQKIIFGNQELFDVKAAIDTKDSQTNSKLFNYFRDKAFPNLSARQLGVMPDLVLDMFINGYYLNLGKTQSTDVNRPYQDKDKRGGIFDAVFTRGDQTTLLTARHDLKNKGLNEISDLIKQELTEGKALALSHTYANVRINHVINLWGADFDAEGNLIAIYVTDSDANASIGMKKYFVGVNANGKVAISAKKIEGDNIGAQVLGLFTLSTGQDIWQKLS

[reply]
1. 348
2. 314
3. 295
4. 341
